In this section we review reported kon values for a set of binders.
# tested.system: T1, canine NGF tagged at the C-terminus with the Flag tag (canine, UniProt A0A8I3PYI3 122-241)
# T1 construct: mature; Expressed with baculovirus technology; also called feline NGF (processed form identical)
# T1 sequence (A0A8I3PYI3 entry or part of it): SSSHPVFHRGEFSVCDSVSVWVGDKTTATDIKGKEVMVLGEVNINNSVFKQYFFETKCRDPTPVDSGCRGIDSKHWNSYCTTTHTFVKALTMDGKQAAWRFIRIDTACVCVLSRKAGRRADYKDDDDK
# method.summary: SPR off-rate assay, Fab-SASA on BSA chip

| binder | kon (M⁻¹ s⁻¹) |
| --- | --- |
| AHF17608 (Fab, V domains shown, not shown: small tags and cut ends) VH: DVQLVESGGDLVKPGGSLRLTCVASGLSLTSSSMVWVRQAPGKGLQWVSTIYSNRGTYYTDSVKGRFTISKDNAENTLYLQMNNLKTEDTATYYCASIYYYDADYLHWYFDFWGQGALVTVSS VL: EIQMTQSPTSLSASVGDRVTITCRASEGIANNLSWYQQTPGKAPKLLIYATSVLHSGVPSRFSGSGSGTDFTLTISSLQPEDFATYYCQQGYKWPLTFGGGTKLEITR | 228000 |
| AHF17602 (Fab-SASA) (Fab, V domains shown, not shown: small tags and cut ends) VH: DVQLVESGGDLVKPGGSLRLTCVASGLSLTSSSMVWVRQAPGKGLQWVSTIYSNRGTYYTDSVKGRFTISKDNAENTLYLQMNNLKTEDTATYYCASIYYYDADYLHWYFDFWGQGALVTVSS VL: EIQMTQSPTSLSASVGDRVTITCRASEGIANNLSWYQQTPGKAPKLLIYATSNLHSGVPSRFSGSGSGTDFTLTISSLQPEDFATYYCQQGYKWPLTFGGGTKLEITR | 210000 |
| AHF17605 (Fab, V domains shown, not shown: small tags and cut ends, Fab-SASA, combinatorial library) VH: DVQLVESGGDLVKPGGSLRLTCVASGLSLTSSSMVWVRQAPGKGLQWVSTIYSNGGTYYTDSVKGRFTISKDNAENTLYLQMNNLKTEDTATYYCAQIYYYDADYLHWYFDFWGQGALVTVSS VL: EIQMTQSPTSLSASVGDRVTITCRASEGIANNLSWYQQTPGKAPKLLIYATSILHSGVPSRFSGSGSGTDFTLTISSLQPEDFATYYCQQGYKWPLTFGGGTKLEITR | 253000 |
| AHF17604 (Fab, V domains shown, not shown: small tags and cut ends, Fab-SASA, combinatorial library) VH: DVQLVESGGDLVKPGGSLRLTCVASGLSLTSSSMVWVRQAPGKGLQWVSTIYSNRGTYYTDSVKGRFTISKDNAENTLYLQMNNLKTEDTATYYCAQIYYYDADYLHWYFDFWGQGALVTVSS VL: EIQMTQSPTSLSASVGDRVTITCRASEGIQNNLSWYQQTPGKAPKLLIYATSILHSGVPSRFSGSGSGTDFTLTISSLQPEDFATYYCQQGYKWPLTFGGGTKLEITR | 145000 |
| AHF17599 (Fab, V domains shown, not shown: small tags and cut ends) VH: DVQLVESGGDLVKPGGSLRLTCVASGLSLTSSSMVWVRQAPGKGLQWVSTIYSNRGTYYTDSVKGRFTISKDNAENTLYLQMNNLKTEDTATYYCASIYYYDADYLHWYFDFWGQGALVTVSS VL: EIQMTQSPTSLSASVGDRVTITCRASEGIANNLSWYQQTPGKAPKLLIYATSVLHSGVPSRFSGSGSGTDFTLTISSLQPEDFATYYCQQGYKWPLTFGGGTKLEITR | 212000 |

// data source = patent US20250011410A1
